Reported values: IC50 for 5-HT2A receptors (UniProt P14842), one per item.
Answer in nM, number only, no unit symbol.

**Query** Identify the measured IC50 of CN1CCN(Cc2cnn(-c3ccc(-c4cccc(F)c4)cc3)c2-c2ccccc2F)CC1 for 5-HT2A receptors (UniProt P14842).
**Result** 5.4

**Query** Identify the measured IC50 of CCN1CCN(Cc2cnn(-c3ccc(-c4ccc5c(c4)OCCO5)cc3)c2-c2ccco2)CC1 for 5-HT2A receptors (UniProt P14842).
**Result** 8

**Query** Identify the measured IC50 of Fc1ccccc1-c1c(CCN2CCOCC2)cnn1-c1ccc(-c2ccccc2)cc1 for 5-HT2A receptors (UniProt P14842).
**Result** 40

**Query** Identify the measured IC50 of Fc1ccc(-c2ccc(-n3ncc(CNC4CN5CCC4CC5)c3-c3ccco3)cc2)cc1 (stereo not shown) [Example 681] for 5-HT2A receptors (UniProt P14842).
**Result** 180

**Query** Identify the measured IC50 of CC(C)(C)OC(=O)NC1CCN(Cc2cnn(-c3ccc(-c4ccc5c(c4)OCCO5)cc3)c2-c2ccco2)CC1 for 5-HT2A receptors (UniProt P14842).
**Result** 11

**Query** Identify the measured IC50 of COc1ccc(-c2ccc(-n3ncc(CN(Cc4nccn4C)Cc4nccn4C)c3-c3ccco3)cc2)cc1 for 5-HT2A receptors (UniProt P14842).
**Result** 450

**Query** Identify the measured IC50 of Cc1ccoc1-c1c(CN(C)C)cnn1-c1ccc(-c2ccc(F)cc2)cc1 for 5-HT2A receptors (UniProt P14842).
**Result** 6.5

**Query** Identify the measured IC50 of Fc1ccc(-c2ccc(-n3ncc(CNC4CN5CCC4CC5)c3-c3ccco3)cc2)cc1 (stereo not shown) [Example 621] for 5-HT2A receptors (UniProt P14842).
**Result** 34

**Query** Identify the measured IC50 of COc1ccccc1-c1c(CN2CCN(C)CC2)cnn1-c1ccc(-c2cc(F)ccc2F)cc1 for 5-HT2A receptors (UniProt P14842).
**Result** 77

**Query** Identify the measured IC50 of CC(C)(C)OC(=O)N1CCN(Cc2cnn(-c3ccc(-c4ccc5c(c4)OCCO5)cc3)c2-c2ccco2)CC1 for 5-HT2A receptors (UniProt P14842).
**Result** 12

**Query** Identify the measured IC50 of Fc1ccccc1-c1c(CN2CCNCC2)cnn1-c1ccc(C(F)(F)F)cn1 for 5-HT2A receptors (UniProt P14842).
**Result** 20

**Query** Identify the measured IC50 of CN1CCN(Cc2cnn(-c3ccc(-c4ccc(F)cc4)cc3)c2-c2ccco2)CC1 for 5-HT2A receptors (UniProt P14842).
**Result** 1.48

**Query** Identify the measured IC50 of CCN1CCN(Cc2cnn(-c3ccc(-c4ccc5c(c4)OCCO5)cc3)c2-n2cccc2)CC1 for 5-HT2A receptors (UniProt P14842).
**Result** 26

**Query** Identify the measured IC50 of COc1ccccc1-c1c(CN2CCN(C)CC2)cnn1-c1ccc(-c2ccccc2F)cc1 for 5-HT2A receptors (UniProt P14842).
**Result** 52

**Query** Identify the measured IC50 of OC1CCN(Cc2cnn(-c3ccc(-c4ccc(F)cc4)cn3)c2-c2ccco2)C1 (stereo not shown) for 5-HT2A receptors (UniProt P14842).
**Result** 32

**Query** Identify the measured IC50 of OC1CCN(Cc2cnn(-c3ccc(-c4ccc(F)cc4)cc3)c2-c2cccc(Cl)c2)C1 (stereo not shown) for 5-HT2A receptors (UniProt P14842).
**Result** 33
